molecular target: NAD-dependent protein deacylase sirtuin-6 (Homo sapiens, UniProt Q8N6T7); assay: Inhibition of human SIRT6 deacetylase activity using Arg-His-Lys-Lys(AC)-AMC as a substrate by fluorescence assay
Sequence (Q8N6T7 whole entry): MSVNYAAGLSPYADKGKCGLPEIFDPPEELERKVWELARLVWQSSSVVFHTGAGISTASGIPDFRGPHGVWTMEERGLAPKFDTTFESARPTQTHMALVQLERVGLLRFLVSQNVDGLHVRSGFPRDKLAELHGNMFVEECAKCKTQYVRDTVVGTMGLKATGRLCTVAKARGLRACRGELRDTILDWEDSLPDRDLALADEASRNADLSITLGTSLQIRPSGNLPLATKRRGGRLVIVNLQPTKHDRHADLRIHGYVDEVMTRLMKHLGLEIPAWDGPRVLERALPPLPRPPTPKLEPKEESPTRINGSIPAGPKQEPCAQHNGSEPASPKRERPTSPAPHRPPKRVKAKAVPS
reportedMetric: IC50 (µM)
Reply with just the number (in µM).

[
  {
    "chemSmiles": "O=c1[nH]c(=O)c2cc(S(=O)(=O)Nc3cccc(CCc4ccncc4)c3)ccc2[nH]1",
    "reportedMetric": "IC50",
    "recordedValue": 37
  },
  {
    "chemSmiles": "O=C1CCCN1c1ccc(S(=O)(=O)Nc2ccc(Oc3cccnc3)cc2)cc1",
    "reportedMetric": "IC50",
    "recordedValue": 441
  }
]

Let's switch to this compound now.
Looking for the measured IC50 of O=c1[nH]c(=O)c2cc(S(=O)(=O)Nc3ccc(Cn4ccnc4)cc3)ccc2[nH]1 , can you help?
60
